- PROTOCOL_NOTES: total protein half-life in vivo (active degradation + dilution); higher = more stable protein
- STUDY_CONDITIONS: E. coli NCM3722 delta-hslV; growth: N-lim chemostat; doubling time 6 h
Provide the recorded total protein half-life in vivo for the entries that follow.
Numbers only, in h.

Use the examples below as a reference point.
SEQUENCE_TEXT: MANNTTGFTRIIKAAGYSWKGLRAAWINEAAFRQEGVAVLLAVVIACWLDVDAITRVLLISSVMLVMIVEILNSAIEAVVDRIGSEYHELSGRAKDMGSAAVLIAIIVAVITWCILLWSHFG [P0ABN1]
VAL: 5.79
--
SEQUENCE_TEXT: MRNLVKYVGIGLLVMGLAACDDKDTNATAQGSVAESNATGNPVNLLDGKLSFSLPADMTDQSGKLGTQANNMHVWSDATGQKAVIVIMGDDPKEDLAVLAKRLEDQQRSRDPQLQVVTNKAIELKGHKMQQLDSIISAKGQTAYSSVILGNVGNQLLTMQITLPADDQQKAQTTAENIINTLVIQ [P0AEE1]
VAL: 5.42
--
SEQUENCE_TEXT: MQIIFGEKCVSLLRLFFAAVLMLWCAQTAAYSGQCHTTQGNPYIGVNFGVKTLEEEANTAGVVKDKFYQWNESNDYYVSCDCDKDNVRSGRWAFAADSPLVYLGDNWYKINDYLAAKVLLQVKGSSPTAVPFENVGTGGDTRWHICDPGGQRLGGQGASGNSGSFSLKILQPFVGSVVIPPMALARLYECYNIPAGDSCTTTGTPVLVYYLSGTINSLGSCSVNAGETIEVDLGDVFAANFRVVGHKPLGARTAELAIPVRCNTGNAGLVNVNLSLTATTDPSYPQAIKTSRPGVGVVVTDSQNNIISPAGGTLPLSIPDDADSIARMNVYPVSTTGVPPETGRFEATATVRINFD
VAL: 5.9
--
SEQUENCE_TEXT: MFNEVHSIHGHTLLLITKSSLQATALLQHLKQSLAITGKLHNIQRSLDDISSGSIILLDMMEADKKLIHYWQDTLSRKNNNIKILLLNTPEDYPYRDIENWPHINGVFYSMEDQERVVNGLQGVLRGECYFTQKLASYLITHSGNYRYNSTESALLTHREKEILNKLRIGASNNEIARSLFISENTVKTHLYNLFKKIAVKNRTQAVSWANDNLRR
VAL: 0.584

For every record below, what is its total protein half-life in vivo?
1. MKICLIDETGTGDGALSVLAARWGLEHDEDNLMALVLTPEHLELRKRDEPKLGGIFVDFVGGAMAHRRKFGGGRGEAVAKAVGIKGDYLPDVVDATAGLGRDAFVLASVGCRVRMLERNPVVAALLDDGLARGYADAEIGGWLQERLQLIHASSLTALTDITPRPQVVYLDPMFPHKQKSALVKKEMRVFQSLVGPDLDADGLLEPARLLATKRVVVKRPDYAPPLANVATPNAVVTKGHRFDIYAGTPV
2. MTNPQFAGHPFGTTVTAETLRNTFAPLTQWEDKYRQLIMLGKQLPALPDELKAQAKEIAGCENRVWLGYTVAENGKMHFFGDSEGRIVRGLLAVLLTAVEGKTAAELQAQSPLALFDELGLRAQLSASRSQGLNALSEAIIAATKQV [P0AGF2]
3. MPSIRLADLAQQLDAELHGDGDIVITGVASMQSAQTGHITFMVNPKYREHLGLCQASAVVMTQDDLPFAKSAALVVKNPYLTYARMAQILDTTPQPAQNIAPSAVIDATAKLGNNVSIGANAVIESGVELGDNVIIGAGCFVGKNSKIGAGSRLWANVTIYHEIQIGQNCLIQSGTVVGADGFGYANDRGNWVKIPQIGRVIIGDRVEIGACTTIDRGALDDTIIGNGVIIDNQCQIAHNVVIGDNTAVAGGVIMAGSLKIGRYCMIGGASVINGHMEICDKVTVTGMGMVMRPITEPGVYSSGIPLQPNKVWRKTAALVMNIDDMSKRLKSLERKVNQQD

Found:
[5.29, 4.9, 5.56]
